Test system: T47D (Breast) human tumor cell line
measurementProtocol: MTT assay, T47D
Assay type: cell-based
pIC50: −log10 of the molar value.
readoutKind: pIC50

A: O=C(/C=C/c1cccnc1)NCCC#CC12CC3CC(CC(C3)C1)C2
B: O=C(/C=C/c1cccnc1)NCCCCC1CCN(C(=O)c2ccccc2)CC1 [Compound 1, reference compound]
Which is greater in pIC50, the first item A or the second item B ? Write down the label attached to your selection.
B

====

System: A549 human lung cancer cell line
measurementProtocol: MTT assay, A549
Format: cell-based
measurementContext: A549 (Lung) human tumor cell line
readoutKind: IC50 (nM)

P: O=C(/C=C/c1cccnc1)NCCCCC1CCN(C(=O)c2ccccc2)CC1 [Compound 1, reference compound]
Q: O=C(/C=C/c1cccnc1)NCCC#CC12CC3CC(CC(C3)C1)C2
Which one would you say has the larger IC50 value: P , or Q ? Provide the label of your selected option as the answer.
Q

Ref: patent US9382267B2
